Test System: MeCP2-MBD WT (UniProt P51608 80-164)
Sequence (P51608 80-164): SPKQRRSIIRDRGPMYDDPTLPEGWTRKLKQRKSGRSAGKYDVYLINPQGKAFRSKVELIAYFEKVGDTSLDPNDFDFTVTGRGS
Procedure Details: EMSA; 20 uM histone H3(15-36)K27me3 peptide; EMSA: 0.5 uM DNA, 0-20 uM protein, 50 mM HEPES pH 7.5, 100 mM NaCl, 1 h at 4 C; 6% native PAGE, 1X TBE, 80 V, 4 C; SYBR Gold; n=3
Applied Conditions: protein: recombinant; tags: C-terminal 6xHis; label: none (SYBR Gold stain); blunt
Reported Metric: Kd
// unit must come after the numeric part

Give the reported value of Kd for this record: BDNF promoter duplex mC/mC (dsDNA, 5-methyl-dC at position 10 of the top strand and position 15 of the bottom strand (symmetric mCpG)) DNA 1: GCCCTGGAACGGAACTCTTCTGGCC DNA 2: GGCCAGAAGAGTTCCGTTCCAGGGC 1.3 µM
